# Tested on: NCI-H460
# assayName: NCI tumour cell line growth inhibition, 48 h
Active and inactive are the calls of the source. No stated cut-off is given here; in the data, active = GI50 up to about 1.1 µM and inactive = higher.
Each entry below lists one item and its recorded GI50 value.
propertyMeasured: GI50

compound | measurement
Cc1nn(C2OC(CO)C(O)C(F)C2O)c(=O)[nH]c1=O (stereo not given) | > 100 µM (inactive)
O=Nc1c(-c2c(O)[nH]c3ccccc23)[nH]c2ccccc12 | 3.53 µM (inactive)
O=C(Nc1ccc(Cl)cc1)c1cc(S(=O)(=O)N2CCNNC2=O)c(S)cc1Cl | > 100 µM (inactive)
C[C@@H](c1ccccc1)C(CC#N)[C@H]1CCC[C@]1(O)C#Cc1ccc2c(c1)OCO2 (stereo not given in full) | 16.1 µM (inactive)
C#CCOCC12C=CC(O1)C1C(=O)OCC12 (stereo not given) | > 100 µM (inactive)
CC1=C2C(=O)NN=C2CCN1c1ccc(Br)cc1 | > 100 µM (inactive)
CC1(C)OCC(COC(=O)NCn2cc(-c3ccccc3)nn2)O1 (stereo not given) | > 100 µM (inactive)
[O-][n+]1c2c([n+]([O-])c3ccccc31)-c1cccc3cccc-2c13 | 91.2 µM (inactive)
CC(=O)O[C@@H]1CO[C@H]2O[C@H]3[C@@H](C(C=O)=C[C@H](O)[C@@H]4C5=C(C(C)C)CC[C@]5(C)CC[C@@]34C)[C@@]2(O)C1=O | 0.255 µM (active)
CCCCCCCCCCCC(=O)OCC1OC(n2cc(F)c(=O)[nH]c2=O)C(NC(=O)OCc2ccccc2)C(OC(=O)CCCCCCCCCCC)C1O (stereo not given) | > 100 µM (inactive)
NC(=O)c1nnc2c(F)cccc2c1N | 72.1 µM (inactive)
Cc1ccc2c(c1)C(=O)N(N(C)C)CC(=O)N2 | > 100 µM (inactive)
C[N+](C)(C)CC1Cc2ccccc2C1=O (stereo not given) | > 10 µM (inactive)
COc1ccc(NC(=O)CSc2nnc(-c3ccc(/N=C\c4ccc(Cl)cc4)cc3)o2)cc1 | > 67.3 µM (inactive)
CCOC(=O)c1nnsc1NC(=O)NCCCCCCn1c(=O)n(CCCCCCNC(=O)Nc2snnc2C(=O)OCC)c(=O)n(CCCCCCNC(=O)Nc2snnc2C(=O)OCC)c1=O | 21.5 µM (inactive)
CC(=O)O[C@]12CCCCC1C1(O)C(O)CCCCC12 (stereo not given in full) | > 100 µM (inactive)
Cc1nc([N+](=O)[O-])cn1-c1nc2ccccn2c1[N+](=O)[O-] | 45.1 µM (inactive)
NS(=O)(=O)c1ccc(/N=N/c2nc3[nH]cnc(=S)c3[nH]2)cc1 | 0.82 µM (active)
CCOC(=O)C(=O)C(=O)NN(C)C1=NCCN1 | > 100 µM (inactive)
CCCCCCCCC/C=C1/CC(CO)(COC(=O)C2CCCCC2)OC1=O (stereo not given) | > 100 µM (inactive)

----------
# Tested on: MCF7
# assayName: NCI tumour cell line growth inhibition, 48 h
The source made the active and inactive calls. Cut-off read from the data, not from the text of the source: active = GI50 up to about 1.1 µM and inactive = higher.
Outcome codes: active, inactive

compound | qualitativeLabel
COc1ccc(-c2ccc(C(=O)C=P(c3ccccc3)(c3ccccc3)c3ccccc3)cc2)cc1 | inactive
Oc1cn(-c2ccc(Cl)cc2)nc1-c1n[nH]c(=S)n1-c1ccccc1 | inactive
Cc1cc(=O)n2nc(CSc3nnc(S)s3)sc2n1 | inactive
COc1cc(Br)cc2cc(-c3cn4ccsc4n3)c(=O)oc12 | inactive
C=C1N(C=O)C(C)(C)N(O)C1(C)C | inactive
Clc1ccc(CNc2nc(Cl)c3nc[nH]c3n2)cc1Cl | inactive
C[n+]1c(-c2ccc(/C=N\NC(=O)c3ccc(C(=O)N/N=C/c4ccc(-c5cn6ccsc6[n+]5C)cc4)cc3)cc2)cn2ccsc21 | inactive
Cc1c(S(=O)(=O)c2ccccc2)c(N)n(Cc2ccccc2)c1C | inactive
COc1c(C)c2c(c(O)c1C/C=C(\C)CCC(=O)O)C(=O)OC2 | active
CN(C)CCCNC(CC#N)CCC#N (stereo unspecified) | inactive
COc1c(Br)cc2c(c1OC)C(Br)CCC(Br)(Br)C2=O (stereo unspecified) | active
CC1(C)OC2C(=O)C=C(COCc3ccccc3)C2O1 (stereo unspecified) | inactive
CCn1c(SCC(=O)NNC(=S)Nc2ccc(C)cc2)nc2ccccc2c1=O | inactive
COC1C(=O)CCC2(CO2)C1(O)C1(C)OC1CCC(C)C (stereo unspecified) | inactive
Cc1cc(-c2nc3cccc(O)c3s2)ccc1N | inactive
CSc1nc(Cl)c2c(n1)Sc1ncnn1C2O (stereo unspecified) | inactive
CCCC[C@@H]1CCN2C[C@@H](O)[C@@H](O)[C@@H]2[C@H]1O | inactive
COc1cccc2c1C(=O)c1c(O)c3c(c(O)c1C2=O)C[C@@](O)(C(C)=O)C[C@@H]3OC1CC(N(C)C)C(O)C(C)O1 (stereo partly specified) | active
O=C(O)c1nc2ccccc2nc1NCc1ccc(F)cc1 | inactive
Cc1cccc2c(N)c3cccc(C(=O)NCC[N+](C)(C)Cc4ccc(S(C)(=O)=O)cc4)c3nc12 | inactive
CC1C(C#N)(C#N)C(C#N)=C(N)C1(Cl)[N+](=O)[O-] (stereo unspecified) | inactive
C[C@H](CCC(=O)O)[C@H]1CC[C@@]2(C)[C@@H]3C(=O)C[C@H]4C(C)(C)[C@@H](O)CC[C@]4(C)[C@H]3C(=O)C[C@]12C | inactive
c1cc(CSc2ncnc3[nH]cnc23)ccn1 | inactive
O=C1O/C(=C(/Cl)c2c3ccccc3cc3ccccc23)c2ccccc21 | inactive
O=C1C=C(Br)c2c(Br)sc(Br)c21 | inactive
CCOC(=O)N/N=C(/OCC)c1ccccc1 | inactive
C[C@@]1(CCCCCCCCCCc2ccccc2)C[C@@]2(C)OC(=O)C[C@H]2OO1 | inactive
OCC(O)COCn1cc(Cn2ncc3c(O)ncnc32)nn1 (stereo unspecified) | inactive
O=c1[nH]nc(Cc2ccccc2)n1C1CC1 | inactive
N#Cc1c(-c2ccccc2)[nH]c(=O)n(C2OC(CO)C(O)C(O)C2O)c1=O (stereo unspecified) | inactive
O=C1C(Cl)=C(Cl)C(Cl)(Cl)C(Cl)C1(Cl)Cl (stereo unspecified) | inactive
CN1C/C(=C\c2cccs2)C(O)/C(=C/c2cccs2)C1 (stereo unspecified) | inactive
Nc1nc(Cl)c(N)c(NCC2(CO)CC(OCc3ccccc3)C2)n1 (stereo unspecified) | inactive
CC1OC(OC2C(O)COC(OC3C(C)OC(OC4C(OC(=O)[C@]56CCC(C)(C)C[C@@H]5C5=CCC7[C@@]8(C)C[C@H](O)[C@H](OC9OC(CO)C(O)C(OC%10OC(CO)C(O)C(O)C%10O)C9O)[C@@](C)(CO)[C@@H]8CC[C@@]7(C)[C@]5(C)CC6)OCC(O)C4O)C(O)C3O)C2O)C(O)C(O)C1O (stereo partly specified) | inactive
COc1c(O)cc2c(c1O)C1O[C@H](CO)C(O)[C@H](O)[C@H]1OC2=O (stereo partly specified) | inactive
CC1=C2C(=O)NN=C2CCN1c1ccc(Br)cc1 | inactive
C[N+](C)(C)CCN(Cc1cccs1)c1ccccn1 | inactive
C=CC[C@H]1[C@H](O[Si](C)(C)C(C)(C)C)C=CC(=O)[C@@H]1CC(=O)OCC | inactive
CC/C=N\N1C(N)=C(C#N)C(C#N)(C#N)C1CC (stereo unspecified) | inactive
COc1ccc(C[C@H]2NC[C@H](O)[C@H]2OC(C)=O)cc1 | active
O=C(O)c1ccccc1/C=C1\Cc2ccccc2C1=O | inactive

----------
# Tested on: HL-60
# assayName: NCI tumour cell line growth inhibition, 48 h
The source made the active and inactive calls. Rule as the data show it: active = GI50 up to about 1.1 µM and inactive = higher.
Outcome codes: t for active, f for inactive

compound | testedSystem | qualitativeLabel
Nc1ccc(S(=O)(=O)NCc2nccs2)cc1 | HL-60 | f
CCOC(=O)C(CS)NC(=O)CCCCCCCC(=O)NC(CS)C(=O)OCC (centres undefined) | HL-60 | f
c1cc2nnc1SCCSCCCSCCS2 | HL-60 | f
Cc1ccc(S(=O)(=O)n2c3c(c4ccccc42)CCN2C(=O)C(S(=O)(=O)c4ccccc4)=CCC32)cc1 (centres undefined) | HL-60 | t
CCOC(=O)N1C/C(=C\c2ccccc2)C(=O)/C(=C/c2ccccc2)C1 | HL-60 | f
COc1cccc2c1C(=O)c1c(O)c3c(c(O)c1C2=O)CC(O)(C(C)=O)CC3OC1OC(COC(C)=O)C(OC(C)=O)C(OC(C)=O)C1OC(C)=O (centres undefined) | HL-60 | f
CN(C)C(=S)N1C(=S)N(c2ccccc2)C(=N/c2ccccc2)/C1=N\c1ccccc1 | HL-60 | f
C[n+]1c(-c2ccc(/C=N/Nc3n[nH]c(=S)n3N/N=C/c3ccc(-c4cn5ccccc5[n+]4C)cc3)cc2)cn2ccccc21 | HL-60 | f
Cc1cccc(C(C)C)c1NC(=O)CC1Sc2ccccc2NC1=O (centres undefined) | HL-60 | f
CC1=CC(=O)/C(=C(/C)NCCN(CCN/C(C)=C2\C(=O)C=C(C)OC2=O)CCN/C(C)=C2\C(=O)C=C(C)OC2=O)C(=O)O1 | HL-60 | f
c1cc(N(CCn2cccn2)CCn2cccn2)cc(N(CCn2cccn2)CCn2cccn2)c1 | HL-60 | f
O=C1O/C(=C(/Cl)c2c3ccccc3cc3ccccc23)c2ccccc21 | HL-60 | f
O=C(O)c1ccccc1/C=C1\Cc2ccccc2C1=O | HL-60 | f
COc1ccc(-c2ccc(C(=O)C=P(c3ccccc3)(c3ccccc3)c3ccccc3)cc2)cc1 | HL-60 | f
COCN1C(=O)[C@@H]2C[C@@H](OC/C=C/CBr)CN2C(=O)c2ccccc21 | HL-60 | f
O=C(c1cccs1)N(C(=S)OCCOc1ccccc1)c1ccccc1 | HL-60 | f
COc1cc(C2c3cc4c(cc3[C@@H](Nc3ccc5c(c3)OCO5)C3COC(=O)[C@H]23)OCO4)cc(OC)c1O (some centres undefined) | HL-60 | t
CCCCn1/c(=N/C(=S)N(C)C)ss/c1=N\C(=S)N(C)C | HL-60 | f
Cc1nn2c(C(=O)N/N=C/c3ccc([N+](=O)[O-])cc3)c(C)nc2s1 | HL-60 | f
